These measurements were taken from patent US8372967B2.

Please go through the items and note down their % Inhib.
System: PCSK9 mRNA
Type: cell-based, human
conditions-used: Hep3B cells, 100 nM, relative to untreated control cells, 0 = no reduction observed
Protocol: When cells reached appropriate confluency, they were treated with oligonucleotide using LIPOFECTIN® as described. […] Cells were treated and data were obtained in duplicate or triplicate. […] Cells were harvested 16-24 hours after oligonucleotide treatment. Prior to quantitative PCR analysis, primer-probe sets specific to the target gene being measured were evaluated for their ability to be “multiplexed” with a GAPDH amplification reaction. […]
Strand notation (5' to 3'): a small letter for the sugar, then the base; units joined by * are phosphorothioate-linked, units joined directly phosphodiester-linked; [ ] holds rarer units or linkages, { } end groups; capitals alone tell only the bases. e = 2'-O-(2-methoxyethyl) (MOE); [5mC] = 5-methylcytosine; d = 2'-deoxy (DNA)
Give bare numbers, in %.

Some entries whose results are on file:
[
  {
    "substance": "400369 (antisense e[5mC]*e[5mC]*dG*dG*d[5mC]*dT*d[5mC]*d[5mC]*dG*dG*d[5mC]*dA*eG*e[5mC]) [compound 400369]",
    "% Inhib / %": 0
  },
  {
    "substance": "400343 (antisense eG*eG*dT*dG*d[5mC]*dT*dG*dG*dG*dG*dG*dG*e[5mC]*eA) [compound 400343]",
    "% Inhib / %": 0
  },
  {
    "substance": "400335 (antisense e[5mC]*e[5mC]*dT*d[5mC]*dA*dG*dG*dG*dA*dA*d[5mC]*d[5mC]*eA*eG) [compound 400335]",
    "% Inhib / %": 0
  },
  {
    "substance": "400305 (antisense eG*e[5mC]*d[5mC]*dT*dG*dT*d[5mC]*dT*dG*dT*dG*dG*eA*eA) [compound 400305]",
    "% Inhib / %": 38
  },
  {
    "substance": "400356 (antisense eT*eA*dG*dA*d[5mC]*dA*d[5mC]*d[5mC]*d[5mC]*dT*d[5mC]*dA*e[5mC]*e[5mC]) [compound 400356]",
    "% Inhib / %": 0
  }
]

Need % Inhib for each of these substances.
1. 400360 (antisense eG*e[5mC]*dA*dT*dG*dG*d[5mC]*dA*dG*d[5mC]*dA*dG*eG*eA) [compound 400360]
2. 400303 (antisense eA*eG*dA*dT*dA*d[5mC]*dA*d[5mC]*d[5mC]*dT*d[5mC]*d[5mC]*eA*e[5mC]) [compound 400303]

38
0

Need % Inhib for each of these substances.
1. 400320 (antisense e[5mC]*e[5mC]*dG*dA*dA*dT*dA*dA*dA*d[5mC]*dT*d[5mC]*e[5mC]*eA) [compound 400320]
2. 400353 (antisense eA*e[5mC]*dA*d[5mC]*d[5mC]*d[5mC]*dT*d[5mC]*dA*d[5mC]*d[5mC]*d[5mC]*e[5mC]*e[5mC]) [compound 400353]
3. 400361 (antisense eG*eG*d[5mC]*dA*dG*d[5mC]*dA*dG*dA*dT*dG*dG*e[5mC]*eA) [compound 400361]
4. 400328 (antisense eA*e[5mC]*dG*dT*dG*dG*dG*d[5mC]*dA*dG*d[5mC]*dA*eG*e[5mC]) [compound 400328]
5. 400371 (antisense eA*eG*dT*dT*dA*d[5mC]*dA*dA*dA*dA*dG*d[5mC]*eA*eA) [compound 400371]
6. 400310 (antisense eT*e[5mC]*d[5mC]*d[5mC]*dG*dG*d[5mC]*d[5mC]*dG*d[5mC]*dT*dG*eA*e[5mC]) [compound 400310]
7. 400334 (antisense e[5mC]*eT*d[5mC]*dA*dG*dG*dG*dA*dA*d[5mC]*d[5mC]*dA*eG*eG) [compound 400334]
8. 400307 (antisense e[5mC]*eG*dG*d[5mC]*d[5mC]*dG*d[5mC]*dT*dG*dA*d[5mC]*d[5mC]*eA*e[5mC]) [compound 400307]

1. 0
2. 19
3. 2
4. 13
5. 0
6. 8
7. 0
8. 76

Need % Inhib for each of these substances.
1. 400350 (antisense e[5mC]*e[5mC]*d[5mC]*dT*d[5mC]*dA*d[5mC]*d[5mC]*d[5mC]*d[5mC]*d[5mC]*dA*eA*eA) [compound 400350]
2. 400349 (antisense e[5mC]*eT*dG*dG*dA*dG*d[5mC]*dA*dG*d[5mC]*dT*d[5mC]*eA*eG) [compound 400349]
3. 400316 (antisense eT*eA*dT*dG*dA*dG*dG*dG*dT*dG*d[5mC]*d[5mC]*eG*e[5mC]) [compound 400316]
4. 400322 (antisense eT*eT*d[5mC]*d[5mC]*dG*dA*dA*dT*dA*dA*dA*d[5mC]*eT*e[5mC]) [compound 400322]

[15, 13, 8, 0]
